molecular target: H1047R PIK3CA enzyme (Homo sapiens, UniProt P42336, H1047R); assay: ADP-Glo Biochemical PIK3CA Kinase Assay
Sequence (P42336 whole entry H1047R): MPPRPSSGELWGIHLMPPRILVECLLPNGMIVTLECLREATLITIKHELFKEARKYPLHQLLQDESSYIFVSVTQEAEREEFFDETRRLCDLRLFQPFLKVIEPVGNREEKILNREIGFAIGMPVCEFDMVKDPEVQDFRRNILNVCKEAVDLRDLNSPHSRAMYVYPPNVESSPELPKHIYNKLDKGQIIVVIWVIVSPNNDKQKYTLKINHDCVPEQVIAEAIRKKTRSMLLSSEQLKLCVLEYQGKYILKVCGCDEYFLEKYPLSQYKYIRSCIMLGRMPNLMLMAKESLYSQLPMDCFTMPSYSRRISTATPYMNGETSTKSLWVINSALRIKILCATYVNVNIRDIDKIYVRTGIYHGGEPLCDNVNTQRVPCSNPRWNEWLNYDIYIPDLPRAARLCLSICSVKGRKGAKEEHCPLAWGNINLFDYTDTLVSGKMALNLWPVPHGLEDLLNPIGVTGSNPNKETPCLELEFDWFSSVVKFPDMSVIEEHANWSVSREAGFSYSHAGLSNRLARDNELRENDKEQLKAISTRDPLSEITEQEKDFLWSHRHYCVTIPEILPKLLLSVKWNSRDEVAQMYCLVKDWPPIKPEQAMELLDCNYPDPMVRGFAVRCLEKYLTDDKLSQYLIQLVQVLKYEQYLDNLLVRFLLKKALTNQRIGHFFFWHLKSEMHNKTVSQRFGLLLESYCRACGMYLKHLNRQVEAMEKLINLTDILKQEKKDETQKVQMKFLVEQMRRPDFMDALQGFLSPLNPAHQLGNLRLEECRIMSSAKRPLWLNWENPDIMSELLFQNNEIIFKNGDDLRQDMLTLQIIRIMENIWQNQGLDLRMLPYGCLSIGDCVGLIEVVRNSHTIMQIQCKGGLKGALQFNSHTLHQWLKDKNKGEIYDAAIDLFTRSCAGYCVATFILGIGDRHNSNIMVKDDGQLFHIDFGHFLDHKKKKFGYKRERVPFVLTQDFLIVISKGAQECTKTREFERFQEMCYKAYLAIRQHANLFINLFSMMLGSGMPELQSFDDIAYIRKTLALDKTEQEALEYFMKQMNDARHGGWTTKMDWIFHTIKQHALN
Sequence (P27986 whole entry partner): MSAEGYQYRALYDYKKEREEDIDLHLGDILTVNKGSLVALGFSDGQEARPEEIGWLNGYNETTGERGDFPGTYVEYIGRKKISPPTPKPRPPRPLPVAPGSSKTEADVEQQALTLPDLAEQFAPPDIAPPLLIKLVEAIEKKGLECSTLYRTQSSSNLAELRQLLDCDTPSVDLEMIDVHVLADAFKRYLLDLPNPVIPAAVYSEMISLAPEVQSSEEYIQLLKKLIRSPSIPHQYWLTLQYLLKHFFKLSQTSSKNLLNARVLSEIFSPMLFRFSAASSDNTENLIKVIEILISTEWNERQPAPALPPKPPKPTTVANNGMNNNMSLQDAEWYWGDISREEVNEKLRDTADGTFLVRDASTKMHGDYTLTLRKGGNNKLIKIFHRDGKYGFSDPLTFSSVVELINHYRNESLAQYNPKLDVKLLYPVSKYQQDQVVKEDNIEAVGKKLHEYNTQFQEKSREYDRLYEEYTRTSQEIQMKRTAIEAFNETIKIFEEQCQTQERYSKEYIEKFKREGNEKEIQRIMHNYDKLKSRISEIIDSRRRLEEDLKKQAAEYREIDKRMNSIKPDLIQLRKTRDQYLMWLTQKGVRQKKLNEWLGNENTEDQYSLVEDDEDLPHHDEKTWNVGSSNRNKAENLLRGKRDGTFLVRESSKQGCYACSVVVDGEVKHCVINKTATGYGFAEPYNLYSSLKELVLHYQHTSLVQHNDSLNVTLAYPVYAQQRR
pIC50: −log10 of the molar value.
Reported pIC50 is given for each of the following molecules.
OBSERVED PROPERTY: pIC50

> print(dat)
                                   molecule        result
1  N#Cc1cc(-c2ccc3ncnn3c2)cc2c1C(c1cc(F)ccc1Cl)NC2=O (stereo not shown) [Compound I-1801]  5.00 to 6.00
2  O=C(Nc1cc(N2CCn3ccnc3C2)cc2c1C(c1cc(F)ccc1Cl)NC2=O)c1cc(F)cc(C(F)(F)F)c1 (stereo not shown) [Compound I-1236]        ≥ 7.00
3  O=C(Nc1cc(N2CCCC2=O)cc2c1C(c1cc(F)ccc1Cl)NC2=O)c1cc(F)cc(C(F)(F)F)c1 (stereo not shown) [Compound I-1273]        ≥ 7.00
4  Cc1ccccc1[C@H]1NC(=O)c2cccc(NC(=O)c3csc4ccccc34)c21 [Compound I-4]  6.00 to 6.30

----------
assay: cells; settings: Homo sapiens, MCF-10A, read-out: MCF10A IC50
Reported IC50 is given for each of the following compounds.

COMPOUND	IC50
O=C(Nc1cc(-c2cn[nH]c2)nc2c1C(c1cc(F)ccc1Cl)NC2=O)c1cc(F)cc(C(F)(F)F)c1 (stereo not shown) [Compound I-161]	1000 to 5000 nM
Cc1ccccc1[C@@H]1NC(=O)c2cc(N)cc(NC(=O)c3nsc4ccccc34)c21 [Compound I-92]	< 1000 nM
O=C(Nc1cc(-c2n[nH]c3ccccc23)cc2c1C(c1cc(F)ccc1Cl)NC2=O)c1cc(F)cc(C(F)(F)F)c1 (stereo not shown) [Compound I-937]	1000 to 5000 nM
Nc1cc(NC(=O)N2C[C@@H](O)c3cc(F)ccc32)c2c(c1)C(=O)N[C@@H]2c1cc(F)ccc1Cl (single isomer, unassigned) [Compound I-2410]	< 1000 nM
N#Cc1cc(NC(=O)N2CC(O)(C(F)(F)F)c3cc(F)ccc32)c2c(c1)C(=O)NC2c1cc(F)ccc1Cl (stereo not shown) [Compound I-2469]	< 1000 nM
CC(C)(O)CNc1cc(NC(=O)c2cc(F)cc(C(F)(F)F)c2)c2c(c1)C(=O)N[C@@H]2c1cc(F)ccc1Cl [Compound I-900]	< 1000 nM
O=C(Nc1cc(NC2=NC[C@@H](C(F)(F)F)O2)cc2c1[C@H](c1cc(F)ccc1Cl)NC2=O)c1cc(F)cc(C(F)(F)F)c1 (single isomer, unassigned) [Compound I-2324]	< 1000 nM
Nc1cc(NC(=O)c2cc(F)cc(C(F)(F)F)c2)c2c(c1)C(=O)N[C@H]2c1cc(F)ccc1Cl [Compound I-218]	< 1000 nM
O=C1N[C@H](c2cc(F)ccc2Cl)c2c(NC(=O)N3C[C@H](O)c4cc(F)ccc43)cc(-n3ccnn3)cc21 (single isomer, unassigned) [Compound I-2369]	1000 to 5000 nM
Cc1noc2ncc(-c3cc(NC(=O)c4cc(F)cc(C(F)(F)F)c4)c4c(c3)C(=O)NC4c3cc(F)ccc3Cl)cc12 (stereo not shown) [Compound I-1039]	< 1000 nM
O=C(Nc1cc(-c2cnn(C3COC3)c2)cc2c1C(c1cc(F)ccc1Cl)NC2=O)c1cc(F)cc(C(F)(F)F)c1 (stereo not shown) [Compound I-904]	< 1000 nM
O=C(Nc1cc(Nc2nc3ccccc3[nH]2)cc2c1C(c1cc(F)ccc1Cl)NC2=O)c1cc(F)cc(C(F)(F)F)c1 (stereo not shown) [Compound I-993]	1000 to 5000 nM
O=C(Nc1cc(-c2nc3ccccc3[nH]2)cc2c1C(c1cc(F)ccc1Cl)NC2=O)c1cc(F)cc(C(F)(F)F)c1 (stereo not shown) [Compound I-1101]	< 1000 nM

FYI, the data here is from patent US12581252B2.
